Tested on: Drosophila S2 cl14 SmoIP sensor cells
Test: normalized SmoIP GFP fluorescence (untreated unstimulated = 0%, untreated Hh-stimulated = 100%); higher = more Smo activation sensor fluorescence
Conditions: stimulation: Hh conditioned medium (+Hh); compound concentration: 2 uM; 24 h
Counter-ions that a name gives are not always drawn.
parameter.measured: normalized SmoIP GFP fluorescence (%)
A number alone suffices; assume %.

Some entries whose results are on file:
molecule	parameter.measured	quantity.unit	recorded.result
CCC[C@H](NC(=O)[C@@H]1[C@H]2CCC[C@H]2CN1C(=O)[C@@H](NC(=O)[C@@H](NC(=O)c1cnccn1)C1CCCCC1)C(C)(C)C)C(=O)C(=O)NC1CC1	normalized SmoIP GFP fluorescence	%	120
O=C(Nc1cccc(Cl)c1)Nc1ncc(CCNc2ncnc3ccsc23)s1	normalized SmoIP GFP fluorescence	%	127
O=C(O)CCCCC(CCSCc1ccccc1)SCc1ccccc1 (stereo not given)	normalized SmoIP GFP fluorescence	%	112
O=S(=O)(NCCNC/C=C/c1ccc(Br)cc1)c1cccc2cnccc12 [H-89-dihydrochloride]	normalized SmoIP GFP fluorescence	%	105
CNC(=O)c1cccc(-c2ccc3c(N4CCOC[C@@H]4C)nc(N4CCOC[C@@H]4C)nc3n2)c1	normalized SmoIP GFP fluorescence	%	65.7

Return reported normalized SmoIP GFP fluorescence; argument: C[N+]1(C)[C@@H]2C[C@@H](OC(=O)C(O)(c3cccs3)c3cccs3)C[C@H]1[C@@H]1O[C@@H]12 [Tiotropium-Bromide-hydrate] 114

Return reported normalized SmoIP GFP fluorescence; argument: CCN(CC)CCCC(C)Nc1nc(C)cc(Nc2ccc3nc(C)cc(N)c3c2)n1 (stereo not given) 112

Return reported normalized SmoIP GFP fluorescence; argument: Nc1c(Br)cc(Br)cc1CN[C@H]1CC[C@H](O)CC1 [ambroxol-hcl] 106

Return reported normalized SmoIP GFP fluorescence; argument: Cc1ccc(S(=O)(=O)c2ccc([N+](=O)[O-])o2)cc1 144

Return reported normalized SmoIP GFP fluorescence; argument: O=C(Nc1c(Cl)cncc1Cl)c1ccc(OC(F)F)c(OCC2CC2)c1 134

Return reported normalized SmoIP GFP fluorescence; argument: C[C@H]1c2cccc(O)c2C(=O)C2=C(O)[C@]3(O)C(=O)C(C(N)=O)=C(O)[C@@H](N(C)C)[C@@H]3[C@@H](O)[C@@H]21 [doxycycline-hcl] 101

Return reported normalized SmoIP GFP fluorescence; argument: CCn1c2ccccc2c2cc(Nc3ccnc(NCCCN4CCOCC4)n3)ccc21 100

Return reported normalized SmoIP GFP fluorescence; argument: Cc1cccc(CC(=O)N2CCc3c2ccc(-c2cn(C)c4ncnc(N)c24)c3F)n1 102

---

System: Drosophila S2 cl14 SmoIP sensor cells;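 also: flow cytometry read-out as median GFP intensity of gated cells, compounds added 30 min before Hh-conditioned or mock medium, mock-treated cells serving as unstimulated baseline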
Experiment: normalized SmoIP GFP fluorescence (untreated unstimulated = 0%, untreated Hh-stimulated = 100%); higher = more Smo activation sensor fluorescence
Conditions: stimulation: mock conditioned medium (-Hh); compound concentration: 2 uM; 24 h
We begin with a simple list: items and their reported normalized SmoIP GFP fluorescence.
A number alone suffices; assume %.

Some entries whose results are on file:
molecule	parameter.measured	quantity.unit	recorded.result
CNC(=O)c1cc(Oc2ccc(NC(=O)Nc3ccc(Cl)c(C(F)(F)F)c3)c(F)c2)ccn1	normalized SmoIP GFP fluorescence	%	27.4
COc1ccc(CNCc2cccc3ccccc23)cc1	normalized SmoIP GFP fluorescence	%	-2.82
Cc1c(Cl)cccc1Nc1ccccc1C(=O)O	normalized SmoIP GFP fluorescence	%	-15.3
CC1(C)CNc2cc(NC(=O)c3cccnc3NCc3ccncc3)ccc21 [Motesanib-Diphosphate]	normalized SmoIP GFP fluorescence	%	43.3
COc1cc(OC)c(/C=C/S(=O)(=O)Cc2ccc(OC)c(NCC(=O)O)c2)c(OC)c1	normalized SmoIP GFP fluorescence	%	-1.34
CC(=O)c1cc([N+](=O)[O-])c(Sc2cccc(Cl)c2Cl)s1	normalized SmoIP GFP fluorescence	%	-4.24
O=C(Nc1cccc2cccnc12)c1ccc(N2C(=O)[C@@H]3[C@H](C2=O)[C@@H]2C=C[C@H]3C2)cc1 [iwr-1-endo]	normalized SmoIP GFP fluorescence	%	-4.92
O=C(O)CC[C@H]1CC[C@@](c2cc(F)ccc2F)(S(=O)(=O)c2ccc(Cl)cc2)CC1	normalized SmoIP GFP fluorescence	%	2.32

Alright, here's another molecule for you.
Please provide the recorded normalized SmoIP GFP fluorescence for COc1cccc2cc(-c3nc([C@H]4CC[C@H](C(=O)O)CC4)n4ncnc(N)c34)[nH]c12 , tested on Drosophila S2 cl14 SmoIP sensor cells. -5.17
